Molecular target: UniProt:Q9Y5N1
Sequence (Q9Y5N1 whole entry): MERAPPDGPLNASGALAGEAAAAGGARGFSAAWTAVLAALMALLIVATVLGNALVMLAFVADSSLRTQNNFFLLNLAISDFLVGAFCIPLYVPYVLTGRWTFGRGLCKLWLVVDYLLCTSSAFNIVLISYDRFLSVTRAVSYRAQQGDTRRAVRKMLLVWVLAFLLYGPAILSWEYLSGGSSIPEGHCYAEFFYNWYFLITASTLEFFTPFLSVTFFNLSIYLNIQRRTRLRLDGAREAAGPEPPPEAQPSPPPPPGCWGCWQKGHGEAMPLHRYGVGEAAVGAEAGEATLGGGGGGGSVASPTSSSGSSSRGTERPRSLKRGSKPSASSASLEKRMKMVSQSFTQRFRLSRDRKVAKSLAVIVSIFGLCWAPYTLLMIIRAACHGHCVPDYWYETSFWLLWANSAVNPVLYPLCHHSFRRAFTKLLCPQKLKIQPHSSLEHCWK
experimental.endpoint: pIC50
pIC50 field: float, defined as -log10 of concentration (mol/L).

QUERY: What does the data say about its pIC50? Entry: CN[C@@H]1CCN(c2nc(N)nc3c2oc2ccc(Cl)cc23)C1
RESULT: 5.24

###

Biological target: CYP1A2 (Homo sapiens, UniProt P05177)
Sequence (P05177 whole entry): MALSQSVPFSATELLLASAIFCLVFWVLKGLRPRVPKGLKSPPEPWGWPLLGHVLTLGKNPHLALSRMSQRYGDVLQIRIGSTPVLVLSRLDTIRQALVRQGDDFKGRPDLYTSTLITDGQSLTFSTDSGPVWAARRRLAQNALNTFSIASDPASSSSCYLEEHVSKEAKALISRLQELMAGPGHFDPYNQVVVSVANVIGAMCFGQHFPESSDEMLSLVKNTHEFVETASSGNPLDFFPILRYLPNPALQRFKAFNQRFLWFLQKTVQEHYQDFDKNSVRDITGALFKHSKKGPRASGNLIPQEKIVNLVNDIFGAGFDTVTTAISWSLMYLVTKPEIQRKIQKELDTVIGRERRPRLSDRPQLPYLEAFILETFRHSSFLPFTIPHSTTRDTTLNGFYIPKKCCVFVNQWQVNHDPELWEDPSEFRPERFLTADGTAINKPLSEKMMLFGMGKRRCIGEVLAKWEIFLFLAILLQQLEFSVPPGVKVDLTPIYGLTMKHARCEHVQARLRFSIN
Assay: Inhibition of CYP1A2 at 1 uM
Format: ADME
experimental.endpoint: inhibition at 1 µM (%)
Hi! Could you send only the number? It should be in %, unit omitted.

QUERY: What does the data say about its inhibition at 1 µM? Entry: CN[C@@H]1CCN(c2nc(N)nc3c2oc2ccc(Cl)cc23)C1
RESULT: 45

// provenance: ChEMBL document CHEMBL1156992
